These entries and their values trace back to ChEMBL document CHEMBL3885861.

Reported PT values follow for various compounds
Species: Rattus norvegicus
Test: Open TG-GATES - Regimen: Daily Repeat
Type: toxicity, organism-based, Sprague-Dawley
Parameters: regimen Daily Repeat, gender Male, age 6 weeks
Settings: in vivo, po, 0 mg/kg, […], tissue Blood, route gavage, dose level Control, time 7 day
Write down the numeric answer in s and omit the unit.

{"columns": ["compound", "unit", "assayValue"],
 "data": [
  ["CC1=C(CC(=O)O)c2cc(F)ccc2/C1=C\\c1ccc([S+](C)[O-])cc1 (centres undefined)", "s", 13.6],
  ["CN(C)C(=N)N=C(N)N [METFORMIN]", "s", 12],
  ["ClC(Cl)(Cl)Cl [CARBON TETRACHLORIDE]", "s", 11.5]
]}

What value of measured PT is listed for CCCCc1oc2ccccc2c1C(=O)c1cc(I)c(OCCN(CC)CC)c(I)c1 [AMIODARONE] ?
12
